tested on: MCF7; assay: Cytotoxicity against human MCF7 cells after 48 hrs by MTT assay; format: functional, cell-based; details: MCF7, 48 h

molecule: C=CC1C(=C)C(=O)Oc2cc3c(cc21)OCO3 (configuration not stated)
measurement_unit: µM
IC50: 9.8

molecule: C=CC1C(=C)C(=O)Oc2ccc3ccc(O)cc3c21 (configuration not stated)
measurement_unit: µM
IC50: 4.8

molecule: C=C1C(=O)Oc2cc(OC)cc(OC)c2C1C (configuration not stated)
measurement_unit: µM
IC50: 4.1

molecule: C=C1C(=O)Oc2cc(OC)cc(OC)c2C1C(C)C (configuration not stated)
measurement_unit: µM
IC50: 2.1

molecule: C=CC1C(=C)C(=O)Oc2cc(OC)ccc21 (configuration not stated)
measurement_unit: µM
IC50: 62

molecule: C=C1C(=O)Oc2ccc3ccccc3c2C1C(C)C (configuration not stated)
measurement_unit: µM
IC50: 0.48

molecule: C=CC1C(=C)C(=O)Oc2ccc3ccccc3c21 (configuration not stated)
measurement_unit: µM
IC50: 4.7
